- measurementTarget: T1, BSA (Bos taurus, UniProt P02769)
- T1 construct: purchased Sigma-Aldrich
- T1 sequence (P02769 25-607): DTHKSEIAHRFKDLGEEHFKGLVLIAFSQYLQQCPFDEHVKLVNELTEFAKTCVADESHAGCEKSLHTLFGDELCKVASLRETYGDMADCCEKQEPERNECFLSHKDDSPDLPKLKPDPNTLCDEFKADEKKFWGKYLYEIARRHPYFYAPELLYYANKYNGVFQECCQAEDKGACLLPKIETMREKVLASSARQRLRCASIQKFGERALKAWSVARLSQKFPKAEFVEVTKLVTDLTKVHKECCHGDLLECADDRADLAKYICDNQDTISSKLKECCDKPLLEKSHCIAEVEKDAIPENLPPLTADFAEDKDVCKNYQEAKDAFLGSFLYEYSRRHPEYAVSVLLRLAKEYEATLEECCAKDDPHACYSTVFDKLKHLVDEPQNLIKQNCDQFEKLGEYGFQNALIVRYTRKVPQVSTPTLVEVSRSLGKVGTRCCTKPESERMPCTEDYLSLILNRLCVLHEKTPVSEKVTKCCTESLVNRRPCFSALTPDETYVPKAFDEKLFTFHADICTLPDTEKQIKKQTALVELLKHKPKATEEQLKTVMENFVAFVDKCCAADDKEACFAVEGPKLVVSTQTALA
- test: ELISA control binding to BSA
- Set-up: species or system bovine
valueKind: binding to BSA

>>> measuredvalue("NI-206.20A8: human-derived recombinant anti-FAP antibody; VH SEQ ID NO: 45, VL SEQ ID NO: 47 (antibody, listed as Homo sapiens, V domains shown) VH: EVQLVESGGGLVQPGGSLKLSCAGSGLDLSASAVHWVRQASGKGLEWIGRIRSKPNHYATTYLASVRGRFILSRDDSENTAYLQMNSLRTEDTAVYYCRIGILNSDHWGRGTLVTVSS VL: QSVLTQPPSASGTPGQTVIISCSGSSSNLGRKTLNWYQQLPGAAPKLLIFKNDQRASGVPDRFSASKSGTSASLTISGLQSDDEADYYCGTWDDSLDNWVFGGGTKVTVL")
"does not bind"
>>> measuredvalue("NI-206.82C2: human-derived recombinant anti-FAP antibody; VH SEQ ID NO: 2 or 4 (PIMC), VL SEQ ID NO: 6 (antibody, V domains shown) VH: QVQLQQSGPGLVKPSQTLSLTCAISGDSVSSNSVTWNWIRQSPSRGLEWLGRTYYRSKWYNDYAVSVKGRITINPDTSKNQFYLQLKSVTPEDAAVYYCARDSSILYGDYWGQGTLVTVSS VL: QAVLTQPSSLSASPGASASLTCTLPSGINVGTYRIFWFQQKPGSPPQYLLSYKSDSDNHQGSGVPSRFSGSKDASANAGILLISGLQSEDEADYYCMIWHSSAWVFGGGTKLTVL")
"does not bind"
>>> measuredvalue("NI-206.59B4: human-derived recombinant anti-FAP antibody; VH SEQ ID NO: 8, VL SEQ ID NO: 10 (antibody, listed as Homo sapiens, V domains shown) VH: QVQLVQSGAEVKKPGASVKVSCKTSGYTFTDYYIHWVRQAPGQGLEWMGWINPNRGGTNYAQKFQGRVTMTRDTSIATAYMELSRLRSDDTAVYYCATASLKIAAVGTFDCWGQGTLVTVSS VL: SYELTQPPSVSVSPGQTARITCSGDALSKQYAFWFQQKPGQAPILVIYQDTKRPSGIPGRFSGSSSGTTVTLTISGAQADDEADYYCQSADSSGTYVFGTGTKVTVL")
"does not bind"
